test system: ES4 (Ewing's Sarcoma); test: combination Emax (second highest fraction inhibited in the dose matrix, 72 h); higher = more inhibition; extreme values may be limits of the assay
# key: entry, value: combination Emax
Lab note: write the figure by itself, no unit.

Known results for compounds:
CC1(C)CCC(CN2CCN(c3ccc(C(=O)NS(=O)(=O)c4ccc(NCC5CCOCC5)c([N+](=O)[O-])c4)c(Oc4cnc5[nH]ccc5c4)c3)CC2)=C(c2ccc(Cl)cc2)C1 [Venetoclax] + Cc1cc2ncnn2cc1Nc1ncc2c(n1)n(C1CCOCC1)c(=O)n2C [AZD7648] (first compound max 1 µM, 7x7, partner max 10 µM) = 0.104
CC(=O)Nc1cccc(-n2c(=O)n(C3CC3)c(=O)c3c(Nc4ccc(I)cc4F)n(C)c(=O)c(C)c32)c1 [Trametinib] + Cc1nc(-c2cn3c(n2)-c2ccc(-c4cnn(C(C)(C)C(N)=O)c4)cc2OCC3)n(C(C)C)n1 [Taselisib] (first compound max 1 µM, 7x7, partner max 10 µM) = 0.715
CN(C)CCCOc1ccc(-c2ccc3ncc4c(c3c2)n(C2CCOCC2)c(=O)n4C)cn1 [AZD0156] + C[C@@H]1COCCN1C2=NC(=NC(=C2)C3(CC3)[S@](=N)(=O)C)C4=C5C=CNC5=NC=C4 [AZD6738] (first compound max 1 µM, 7x7, partner max 10 µM) = 0.844

Checklist item: combination Emax tested on ES4 (Ewing's Sarcoma), entry CC1(C)CCC(CN2CCN(c3ccc(C(=O)NS(=O)(=O)c4ccc(NCC5CCOCC5)c([N+](=O)[O-])c4)c(Oc4cnc5[nH]ccc5c4)c3)CC2)=C(c2ccc(Cl)cc2)C1 [Venetoclax] + C1CN(CCC1(C(=O)N[C@@H](CCO)C2=CC=C(C=C2)Cl)N)C3=NC=NC4=C3C=CN4 [Capivasertib] (first compound max 1 µM, 7x7, partner max 3 µM) , value?
0.155

Report combination Emax for COc1nnc2ccc(N3CCC(c4ccc(OCCN5CCN(C)C(=O)[C@H]5C)cc4)CC3)nn12 [AZD5153] + Cc1c2c(nn1C)CSCc1cc(n(C)n1)CSc1cc(c3ccccc3c1)OCCCc1c(C(=O)O)n(C)c3c-2c(Cl)ccc13 [AZD5991] (first compound max 1 µM, 7x7, partner max 1 µM) tested on ES4 (Ewing's Sarcoma).
0.63

====

test system: NOS-1 (Osteosarcoma); test: Bliss excess, mean over the matrix (fraction); higher = more synergy
# label = yes (1) if Bliss excess >= 0.004 else no (0)

COc1cc2ncnc(Nc3ccc(F)c(Cl)c3)c2cc1OCCCN1CCOCC1 [Gefitinib] + CC(C)n1c(=O)n(C)c2cnc3cc(F)c(-c4ccc(OCCCN5CCCCC5)nc4)cc3c21 [AZD1390] (first compound max 10 µM, 7x7, partner max 0.3 µM) = no (0)
CCc1c2c(nc3ccc(O)cc13)-c1cc3c(c(=O)n1C2)COC(=O)[C@]3(O)CC [SN-38] + CN(C)CCCOc1ccc(-c2ccc3ncc4c(c3c2)n(C2CCOCC2)c(=O)n4C)cn1 [AZD0156] (first compound max 0.3 µM, 7x7, partner max 1 µM) = no (0)
CCN(CCO)CCCOc1ccc2c(Nc3cc(CC(=O)Nc4cccc(F)c4)[nH]n3)ncnc2c1 [AZD2811] + C=CCn1c(=O)c2cnc(Nc3ccc(N4CCN(C)CC4)cc3)nc2n1-c1cccc(C(C)(C)O)n1 [AZD1775] (first compound max 1 µM, partner max 1 µM) = yes (1)
Cc1c2c(nn1C)CSCc1cc(n(C)n1)CSc1cc(c3ccccc3c1)OCCCc1c(C(=O)O)n(C)c3c-2c(Cl)ccc13 [AZD5991] + CC1(C)CCC(CN2CCN(c3ccc(C(=O)NS(=O)(=O)c4ccc(NCC5CCOCC5)c([N+](=O)[O-])c4)c(Oc4cnc5[nH]ccc5c4)c3)CC2)=C(c2ccc(Cl)cc2)C1 [Venetoclax] (first compound max 1 µM, 7x7, partner max 1 µM) = yes (1)
COc1cccc(OCCCN)c1-c1cc(Nc2cnc(C#N)cn2)n[nH]1 [Prexasertib] + CCc1c2c(nc3ccc(O)cc13)-c1cc3c(c(=O)n1C2)COC(=O)[C@]3(O)CC [SN-38] (first compound max 1 µM, 7x7, partner max 0.3 µM) = yes (1)
CC1(C)CCC(CN2CCN(c3ccc(C(=O)NS(=O)(=O)c4ccc(NCC5CCOCC5)c([N+](=O)[O-])c4)c(Oc4cnc5[nH]ccc5c4)c3)CC2)=C(c2ccc(Cl)cc2)C1 [Venetoclax] + Cn1cnc2c(F)c(Nc3ccc(Br)cc3Cl)c(C(=O)NOCCO)cc21 [Selumetinib] (first compound max 1 µM, 7x7, partner max 3 µM) = no (0)

Consider the record given below.
Is reported Bliss excess greater than or equal to 0.004 here: Cc1cc2ncnn2cc1Nc1ncc2c(n1)n(C1CCOCC1)c(=O)n2C [AZD7648] + CCN(CCO)CCCOc1ccc2c(Nc3cc(CC(=O)Nc4cccc(F)c4)[nH]n3)ncnc2c1 [AZD2811] (first compound max 10 µM, 7x7, partner max 1 µM)
no (0)

====

test system: CaR-1 (Colorectal Carcinoma); test: combination Emax (second highest fraction inhibited in the dose matrix, 72 h); higher = more inhibition; extreme values may be limits of the assay
assay.endpoint: combination Emax
Reply with the value as a number alone.

Consider the reported combination Emax for these compounds:
N#Cc1cnc(Nc2cc(NC[C@H]3CNCCO3)c(C(F)(F)F)cn2)cn1 [SRA737] + C=CCn1c(=O)c2cnc(Nc3ccc(N4CCN(C)CC4)cc3)nc2n1-c1cccc(C(C)(C)O)n1 [AZD1775] (first compound max 10 µM, partner max 1 µM) = 0.408
CS(=O)(=O)CCNCc1ccc(-c2ccc3ncnc(Nc4ccc(OCc5cccc(F)c5)c(Cl)c4)c3c2)o1 [Lapatinib] + NC1(c2ccc(-c3nc4ccn5c(=O)[nH]nc5c4cc3-c3ccccc3)cc2)CCC1 [MK-2206] (first compound max 10 µM, 7x7, partner max 10 µM) = 0.779

Report combination Emax for O=C(c1cc(Cc2n[nH]c(=O)c3ccccc23)ccc1F)N1CCN(C(=O)C2CC2)CC1 [Olaparib] + COc1nnc2ccc(N3CCC(c4ccc(OCCN5CCN(C)C(=O)[C@H]5C)cc4)CC3)nn12 [AZD5153] (first compound max 10 µM, 7x7, partner max 1 µM) please.
0.277

What value of combination Emax has been reported for the following compound? CC(=O)c1c(C)c2cnc(Nc3ccc(N4CCNCC4)cn3)nc2n(C2CCCC2)c1=O [Palbociclib] + Cc1c2c(nn1C)CSCc1cc(n(C)n1)CSc1cc(c3ccccc3c1)OCCCc1c(C(=O)O)n(C)c3c-2c(Cl)ccc13 [AZD5991] (first compound max 10 µM, 7x7, partner max 1 µM)
0.229

====

test system: MDA-MB-361 (Breast Carcinoma); test: Bliss excess, mean over the matrix (fraction); higher = more synergy
assay.endpoint: Bliss excess
Answer as a number with no unit attached.

Which Bliss excess value belongs to CC1(C)CCC(CN2CCN(c3ccc(C(=O)NS(=O)(=O)c4ccc(NCC5CCOCC5)c([N+](=O)[O-])c4)c(Oc4cnc5[nH]ccc5c4)c3)CC2)=C(c2ccc(Cl)cc2)C1 [Venetoclax] + Cc1cc2ncnn2cc1Nc1ncc2c(n1)n(C1CCOCC1)c(=O)n2C [AZD7648] (first compound max 1 µM, 7x7, partner max 10 µM) ?
0.0398

Recorded Bliss excess of CS(=O)(=O)CCNCc1ccc(-c2ccc3ncnc(Nc4ccc(OCc5cccc(F)c5)c(Cl)c4)c3c2)o1 [Lapatinib] + C[C@@H](Oc1cc(-c2cnn(C3CCNCC3)c2)cnc1N)c1c(Cl)ccc(F)c1Cl [Crizotinib] (first compound max 10 µM, 7x7, partner max 10 µM) , please.
0.0278

Look up Bliss excess: CC1(C)CCC(CN2CCN(c3ccc(C(=O)NS(=O)(=O)c4ccc(NCC5CCOCC5)c([N+](=O)[O-])c4)c(Oc4cnc5[nH]ccc5c4)c3)CC2)=C(c2ccc(Cl)cc2)C1 [Venetoclax] + CN(C)CCCOc1ccc(-c2ccc3ncc4c(c3c2)n(C2CCOCC2)c(=O)n4C)cn1 [AZD0156] (first compound max 1 µM, 7x7, partner max 1 µM)
0.0156

====

tested on: HT-1376 (Bladder Carcinoma); test: combination Emax (second highest fraction inhibited in the dose matrix, 72 h); higher = more inhibition; extreme values may be limits of the assay
assay.endpoint: combination Emax
A bare number is all that is needed in reply.

Please look up its combination Emax: Cn1cnc2c(F)c(Nc3ccc(Br)cc3Cl)c(C(=O)NOCCO)cc21 [Selumetinib] + C[C@@H]1COCCN1C2=NC(=NC(=C2)C3(CC3)[S@](=N)(=O)C)C4=C5C=CNC5=NC=C4 [AZD6738] (first compound max 10 µM, 7x7, partner max 10 µM)
0.467

Tell me the measured combination Emax of CC1(C)CCC(CN2CCN(c3ccc(C(=O)NS(=O)(=O)c4ccc(NCC5CCOCC5)c([N+](=O)[O-])c4)c(Oc4cnc5[nH]ccc5c4)c3)CC2)=C(c2ccc(Cl)cc2)C1 [Venetoclax] + CS(=O)(=O)CCNCc1ccc(-c2ccc3ncnc(Nc4ccc(OCc5cccc(F)c5)c(Cl)c4)c3c2)o1 [Lapatinib] (first compound max 1 µM, 7x7, partner max 10 µM) , please.
0.194

Form field: reported combination Emax of Cc1c2c(nn1C)CSCc1cc(n(C)n1)CSc1cc(c3ccccc3c1)OCCCc1c(C(=O)O)n(C)c3c-2c(Cl)ccc13 [AZD5991] + Cc1cc2ncnn2cc1Nc1ncc2c(n1)n(C1CCOCC1)c(=O)n2C [AZD7648] (first compound max 1 µM, 7x7, partner max 10 µM)
0.221

Requested read-out: combination Emax. Entry: CN(CCO)CC[C@H](CSc1ccccc1)Nc1ccc(S(=O)(=O)NC(=O)c2ccc(N3CCC([C@@H](O)c4ccccc4-c4ccc(Cl)cc4)CC3)cc2)cc1S(=O)(=O)C(F)(F)F [AZD4320] + Cc1cc2ncnn2cc1Nc1ncc2c(n1)n(C1CCOCC1)c(=O)n2C [AZD7648] (first compound max 1 µM, 7x7, partner max 10 µM)
0.786

Entry Cc1c2c(nn1C)CSCc1cc(n(C)n1)CSc1cc(c3ccccc3c1)OCCCc1c(C(=O)O)n(C)c3c-2c(Cl)ccc13 [AZD5991] + CCN(CCO)CCCOc1ccc2c(Nc3cc(CC(=O)Nc4cccc(F)c4)[nH]n3)ncnc2c1 [AZD2811] (first compound max 1 µM, 7x7, partner max 1 µM) has what combination Emax?
0.243

Can you look up the measured combination Emax of Cc1cc2ncnn2cc1Nc1ncc2c(n1)n(C1CCOCC1)c(=O)n2C [AZD7648] + CN(C)CCCOc1ccc(-c2ccc3ncc4c(c3c2)n(C2CCOCC2)c(=O)n4C)cn1 [AZD0156] (first compound max 10 µM, 7x7, partner max 1 µM) for me?
0.2

Could you tell me which combination Emax is on file for N#Cc1cnc(Nc2cc(NC[C@H]3CNCCO3)c(C(F)(F)F)cn2)cn1 [SRA737] + O=c1[nH]cc(F)c(=O)[nH]1 [5-Fluorouracil] (first compound max 10 µM, 7x7, partner max 20 µM) ?
0.175

Which combination Emax is listed for NC1(C(=O)N[C@@H](CCO)c2ccc(Cl)cc2)CCN(c2ncnc3[nH]ccc23)CC1 [Capivasertib] + CC(=O)c1c(C)c2cnc(Nc3ccc(N4CCNCC4)cn3)nc2n(C2CCCC2)c1=O [Palbociclib] (first compound max 10 µM, 7x7, partner max 10 µM) ?
0.144

Entry CN(CCO)CC[C@H](CSc1ccccc1)Nc1ccc(S(=O)(=O)NC(=O)c2ccc(N3CCC([C@@H](O)c4ccccc4-c4ccc(Cl)cc4)CC3)cc2)cc1S(=O)(=O)C(F)(F)F [AZD4320] + Nc1ccn([C@@H]2O[C@H](CO)[C@@H](O)C2(F)F)c(=O)n1 [Gemcitabine] (first compound max 1 µM, 7x7, partner max 0.3 µM) : reported combination Emax = ?
0.236

Returns the measured combination Emax for the input molecule. Input: Cc1cc2ncnn2cc1Nc1ncc2c(n1)n(C1CCOCC1)c(=O)n2C [AZD7648] + C[C@@H]1COCCN1C2=NC(=NC(=C2)C3(CC3)[S@](=N)(=O)C)C4=C5C=CNC5=NC=C4 [AZD6738] (first compound max 10 µM, 7x7, partner max 10 µM)
0.546

Quick one: combination Emax of CCN(CCO)CCCOc1ccc2c(Nc3cc(CC(=O)Nc4cccc(F)c4)[nH]n3)ncnc2c1 [AZD2811] + C[C@@H]1COCCN1C2=NC(=NC(=C2)C3(CC3)[S@](=N)(=O)C)C4=C5C=CNC5=NC=C4 [AZD6738] (first compound max 1 µM, 7x7, partner max 10 µM) ?
0.54
